MEASUREMENT_PROTOCOL: inhibitors of hydroxyurea-induced Chk1 phosphorylation, primary screen, imaging, HeLa, phospho-Chk1 antibody, percent positive cells (AID 1186)
EXPERIMENTAL_PARAMETERS: hydroxyurea-induced phospho-Chk1 immunofluorescence imaging, higher = more signal
Calls of active or inactive are those of the source. No rule for the calls is given here.
METRIC_NAME: z-score

Worked set:
>>> result("C[N+](C)(C)CCCC[C@@H]1NC(=O)[C@H]2C[C@@H](C(=O)O)[C@@H](c3ccc(O)cc3)N2C1=O")
"-0.349 (inactive)"
>>> result("C[C@]1(C(=O)NCC(F)(F)F)c2ccccc2C(=O)N(Cc2cc(C(F)(F)F)cc(C(F)(F)F)c2)[C@H]1c1ccc(CO)cc1")
"-0.496 (inactive)"
>>> result("COC(=O)[C@@]1(Cc2ccc(F)cc2)[C@H]2c3cc(C(=O)N(C)C)n(Cc4ccsc4Br)c3C[C@H]2CN1C(=O)c1ccccc1")
"-0.219 (inactive)"
>>> result("COc1ccc(C(=O)Nc2ccc(CN3C(=O)[C@]4(O[C@H](CC(=O)N(CCO)Cc5ccccc5)[C@@H]([Si](C)(C)c5ccc(OC)cc5)[C@@H]4C)c4ccccc43)cc2)cc1")
"0.274 (inactive)"
>>> result("COCCOC(=O)N1C(=O)[C@@]2(c3ccccc31)[C@H](C(=O)Nc1nc3ccccc3s1)[C@H]1C(=O)O[C@H](c3ccccc3)[C@H](c3ccccc3)N1[C@@H]2c1ccccc1OCCO")
"0.152 (inactive)"
>>> result("C=CC[C@]1(C(=O)NCCN2CCOCC2)N=C(c2ccc(OCCCO)cc2)O[C@H]1c1ccccc1")
"-0.116 (inactive)"

// query Fill blank: measured z-score of the compound CS(=O)(=O)CCOC(=O)C1=CC(CCCO)=CC(C2CC2)N(Cc2sc3ccccc3c2Cl)C=C1C(=O)OCCS(C)(=O)=O (stereo not drawn) is ____.
// result -0.207 (inactive)

// query # iterate: `O=C1O[C@@H](c2ccccc2)[C@@H](c2ccccc2)N2[C@@H](c3ccccc3OCCO)[C@]3(C(=O)Nc4ccc(C#CC5(O)CCCCCC5)cc43)[C@@H](C(=O)N3CCCCCCC3)[C@H]12`
// result 0.503 (inactive)

// query Same read-out for `[N-]=[N+]=NCc1ccccc1C[C@@]1(C(=O)NCCN2CCOCC2)N=C(c2ccc(OCCCO)cc2)O[C@@H]1c1ccccc1` ?
// result 0.174 (inactive)

// query Same question, `[N-]=[N+]=NCc1ccccc1[C@H]1OC(c2ccc(OCCCO)cc2)=N[C@@]1(Cc1ccccc1N=[N+]=[N-])C(=O)O` this time
// result -0.0666 (inactive)

// query Consider next the compound COC(=O)[C@H](Cc1ccccc1)N1CC(C)(OC)O[C@@H](Cc2ccccc2)[C@H]1/C=C/C1CC1 (stereo partly drawn) in the same way.
// result 0.512 (inactive)

// query Same lookup for `COCCCNC(=O)[C@@]1(Cc2ccccc2I)c2ccccc2C(=O)N(Cc2ccccc2OC)[C@H]1c1ccc(CO)cc1` , please.
// result -0.14 (inactive)

// query Another compound to check: `C=CCNC(=O)[C@H]1[C@@H]2C(=O)O[C@@H](c3ccccc3)[C@@H](c3ccccc3)N2[C@@H](c2ccc(OCCO)cc2)[C@]12C(=O)N(C(=O)OCCOC)c1ccc(C#CCNC(N)=O)cc12`
// result -0.128 (inactive)
